system: Galium (catchweed bedstraw, Galium aparine); experiment: Test A postemergence; format: in vivo; details: Galium, post-emergence, 240 h, 500 g ai/ha, postemergence; 0 to 100 scale, 0 is no effect, 100 is complete control; read-out: Galium plant response rating
Assign pest or weed control at 500 g/ha to each entry below.
Your answer is read as %, so omit the unit and give the number.

**Query** Request: pest or weed control at 500 g/ha, test system Galium (catchweed bedstraw, Galium aparine), entry COc1cc(C(F)(F)F)ccc1[C@H]1CNC(=O)[C@@H]1C(=O)Nc1ccccc1F
**Result** 40

**Query** Request: pest or weed control at 500 g/ha, test system Galium (catchweed bedstraw, Galium aparine), entry CN1C[C@H](c2ccc(C(F)(F)F)cc2)[C@@](F)(C(=O)Nc2cccc(F)c2F)C1=O (racemic)
**Result** 60

**Query** Request: pest or weed control at 500 g/ha, test system Galium (catchweed bedstraw, Galium aparine), entry Cc1nc([C@H]2CNC(=O)[C@@H]2C(=O)Nc2ccccc2F)cs1
**Result** 0

**Query** Request: pest or weed control at 500 g/ha, test system Galium (catchweed bedstraw, Galium aparine), entry Cc1ccc([C@H]2CCN(C)C(=O)[C@@H]2C(=O)Nc2ccc(F)c(F)c2F)cc1
**Result** 60

**Query** Request: pest or weed control at 500 g/ha, test system Galium (catchweed bedstraw, Galium aparine), entry CC(C)=CC1CNC(=O)C1C(=O)Nc1ccccc1S(C)(=O)=O (centres unmarked)
**Result** 0

**Query** Request: pest or weed control at 500 g/ha, test system Galium (catchweed bedstraw, Galium aparine), entry CN1C[C@H](c2cscn2)[C@@H](C(=O)Nc2cccc(F)c2F)C1=O
**Result** 0

**Query** Request: pest or weed control at 500 g/ha, test system Galium (catchweed bedstraw, Galium aparine), entry CSc1ccccc1NC(=O)[C@H]1C(=O)N(C)CC[C@@H]1c1ccc(C)cc1
**Result** 0

**Query** Request: pest or weed control at 500 g/ha, test system Galium (catchweed bedstraw, Galium aparine), entry CN1C[C@H](c2csc3ccccc23)[C@@H](C(=O)Nc2cccc(F)c2F)C1=O
**Result** 30
